Data origin: ChEMBL document CHEMBL4270513

- TARGET_SYSTEM: Melanocortin receptor 4 (Homo sapiens, UniProt P32245)
- Sequence (P32245 whole entry): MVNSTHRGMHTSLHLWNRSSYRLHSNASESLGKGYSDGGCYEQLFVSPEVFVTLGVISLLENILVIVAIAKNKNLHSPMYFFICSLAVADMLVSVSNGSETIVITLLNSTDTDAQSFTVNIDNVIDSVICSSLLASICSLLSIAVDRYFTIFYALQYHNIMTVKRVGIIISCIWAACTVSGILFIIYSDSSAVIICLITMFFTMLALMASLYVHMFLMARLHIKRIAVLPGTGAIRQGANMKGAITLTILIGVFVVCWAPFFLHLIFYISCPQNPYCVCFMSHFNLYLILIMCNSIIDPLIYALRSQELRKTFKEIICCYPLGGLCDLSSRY
- TEST_SUMMARY: Displacement of [125I]-[Nle4,d-Phe7]-alpha-MSH from human MC4R expressed in HEK293 cells after 40 mins by gamma counting analysis
Square brackets hold non-standard residues; d marks the D form. Peptide text beside a SMILES is read from it. dPhe(4-CF3) = N[C@H](Cc1ccc(C(F)(F)F)cc1)C(=O)O; dPhe(4-Br) = N[C@H](Cc1ccc(Br)cc1)C(=O)O; Nle = CCCC[C@H](N)C(=O)O
Each entry below lists one item and its recorded IC50 value.
Number in µM, nothing else.

[[record]]
compound = "CCCC[C@H](NC(=O)[C@@H](Cc1ccc(C(F)(F)F)cc1)NC(=O)[C@@H]1CCCN1C(C)=O)C(=O)N[C@@H](Cc1c[nH]c2ccccc12)C(N)=O (Ac-P[dPhe(4-CF3)][Nle]W-NH2)"
experimental_value = 0.0021


Fill in reported IC50 for this entry: CCCC[C@H](NC(=O)[C@@H](Cc1ccc(Br)cc1)NC(=O)[C@H](Cc1cnc[nH]1)NC(C)=O)C(=O)N[C@@H](Cc1c[nH]c2ccccc12)C(N)=O (Ac-H[dPhe(4-Br)][Nle]W-NH2)
0.053

----------
- TARGET_SYSTEM: Melanocortin receptor 3 (Homo sapiens)
- Sequence (P41968 whole entry): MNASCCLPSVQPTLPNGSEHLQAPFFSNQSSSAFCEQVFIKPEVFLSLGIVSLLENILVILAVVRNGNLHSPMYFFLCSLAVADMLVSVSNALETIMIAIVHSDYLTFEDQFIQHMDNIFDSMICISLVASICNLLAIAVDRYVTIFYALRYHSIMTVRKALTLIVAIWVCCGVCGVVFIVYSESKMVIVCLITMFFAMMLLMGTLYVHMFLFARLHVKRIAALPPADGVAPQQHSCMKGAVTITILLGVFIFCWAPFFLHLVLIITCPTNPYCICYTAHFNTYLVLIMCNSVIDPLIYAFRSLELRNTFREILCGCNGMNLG
- TEST_SUMMARY: Displacement of [125I]-[Nle4,d-Phe7]-alpha-MSH from human MC3R expressed in HEK293 cells at 10 uM after 40 mins by gamma counting analysis relative to control
- Assay type: cell-based
Square brackets hold non-standard residues; d marks the D form. Peptide text beside a SMILES is read from it. dPhe(4-CF3) = N[C@H](Cc1ccc(C(F)(F)F)cc1)C(=O)O; dPhe(4-Cl) = N[C@H](Cc1ccc(Cl)cc1)C(=O)O; dPhe(4-F) = N[C@H](Cc1ccc(F)cc1)C(=O)O; Nle = CCCC[C@H](N)C(=O)O
Binary call on %max with cut-off 40%: strictly below means yes, and equality or higher means no.

Consider the worked cases shown below.
[[record]]
molecule = "CCCC[C@H](NC(=O)[C@@H](Cc1ccc(C(F)(F)F)cc1)NC(=O)[C@H](Cc1cnc[nH]1)NC(C)=O)C(=O)N[C@@H](Cc1c[nH]c2ccccc12)C(N)=O (Ac-H[dPhe(4-CF3)][Nle]W-NH2)"
assigned_label = "no"

[[record]]
molecule = "CCCC[C@H](NC(=O)[C@@H](Cc1ccc(Cl)cc1)NC(=O)[C@@H]1CCCN1C(C)=O)C(=O)N[C@@H](Cc1c[nH]c2ccccc12)C(N)=O (Ac-P[dPhe(4-Cl)][Nle]W-NH2)"
assigned_label = "yes"

[[record]]
molecule = "CCCC[C@H](NC(=O)[C@@H](Cc1ccc(F)cc1)NC(=O)[C@@H]1CCCN1C(C)=O)C(=O)N[C@@H](Cc1c[nH]c2ccccc12)C(N)=O (Ac-P[dPhe(4-F)][Nle]W-NH2)"
assigned_label = "yes"

[[record]]
molecule = "CCCC[C@H](NC(=O)[C@@H](Cc1ccccc1)NC(=O)[C@H](Cc1cnc[nH]1)NC(C)=O)C(=O)N[C@@H](Cc1c[nH]c2ccccc12)C(N)=O (Ac-H[dF][Nle]W-NH2)"
assigned_label = "yes"

[[record]]
molecule = "CCCC[C@H](NC(=O)[C@@H](Cc1ccccc1)NC(=O)[C@@H]1CCCN1C(C)=O)C(=O)N[C@@H](Cc1c[nH]c2ccccc12)C(N)=O (Ac-P[dF][Nle]W-NH2)"
assigned_label = "no"


Please state whether %max is below 40% for CCCC[C@H](NC(=O)[C@@H](Cc1ccc(Cl)cc1)NC(=O)[C@H](Cc1cnc[nH]1)NC(C)=O)C(=O)N[C@@H](Cc1c[nH]c2ccccc12)C(N)=O (Ac-H[dPhe(4-Cl)][Nle]W-NH2)
no

Please state whether %max is below 40% for CCCC[C@H](NC(=O)[C@@H](Cc1ccc(F)cc1)NC(=O)[C@H](Cc1cnc[nH]1)NC(C)=O)C(=O)N[C@@H](Cc1c[nH]c2ccccc12)C(N)=O (Ac-H[dPhe(4-F)][Nle]W-NH2)
yes
